Tested on: CAKI-1 renal
ASSAY COMMENT: NCI tumour cell line growth inhibition, 48 h
ENDPOINT NAME: TGI (µM)
Write down the numeric answer in µM and omit the unit.

// solved cases for TGI follow
> print(dat)
                                   compound  quantity.unit  meas.value
1  Nc1c2ccccc2nc2ccccc12 (tested in a mixture with another compound)             µM        5.11
2    COC(=O)/C=C1/OC(c2ccc(C)cc2)=C(Cl)C1=O             µM        29.7
3  CCCCCC/C=C1\CCC(CN(C)C)C1=O (configuration not stated)             µM        9.51
4   O=C(O)c1ccccc1Nc1ccc2nnc(-c3ccncc3)n2n1             µM        11.7

Proceed to the following item.
Query :: Fill in reported TGI for this entry: Cc1ccc(NC(=O)c2cc3ccccc3cc2O)c(C)c1.Cc1ccc(NC(=O)c2cc3ccccc3cc2[O-])c(C)c1.[Ni+2]
Result :: 13.1
